Test: Pyrolysis temperature
Format: physicochemical
Conditions: thermogravimetric measurement (TG); nitrogen stream, 10° C./min
observation.type: pyrolysis temperature (°C)

1) Oc1ccc2ccc3c(c2c1)C(c1ccc(-c2ccccc2)cc1)c1c(ccc2ccc(O)cc12)O3
410
2) Oc1ccc2c3c(ccc2c1)Oc1ccc2cc(O)ccc2c1C3c1ccc(C2c3c(ccc4cc(O)ccc34)Oc3ccc4cc(O)ccc4c32)cc1
410
3) Oc1cccc2c3c(ccc12)Oc1ccc2c(O)cccc2c1C3c1ccc(-c2ccccc2)cc1
410
4) Oc1ccc2c3c(ccc2c1)Oc1ccc2cc(O)ccc2c1C3c1cc2ccccc2c2ccccc12
415
5) Oc1ccc2c3c(ccc2c1)Oc1ccc2cc(O)ccc2c1C3c1ccc2ccc3cccc4ccc1c2c34
420
6) Oc1ccc2c3c(ccc2c1)Oc1ccc2cc(O)ccc2c1C31c2ccccc2-c2ccccc21
450
7) Oc1cc2ccccc2c2c1Oc1c(O)cc3ccccc3c1C2c1ccc(-c2ccccc2)cc1
410
8) Oc1ccc2ccc3c(c2c1)Oc1c(ccc2ccc(O)cc12)C3c1ccc(-c2ccccc2)cc1
410
9) Oc1cccc2c3c(ccc12)C(c1ccc(-c2ccccc2)cc1)c1ccc2c(O)cccc2c1O3
410
10) Oc1ccc2c3c(ccc2c1)Oc1ccc2cc(O)ccc2c1C3c1ccc(-c2ccc(C3c4c(ccc5cc(O)ccc45)Oc4ccc5cc(O)ccc5c43)cc2)cc1
410
11) Oc1ccc2c3c(ccc2c1)Oc1ccc2cc(O)ccc2c1C3c1cc(C2c3c(ccc4cc(O)ccc34)Oc3ccc4cc(O)ccc4c32)cc(C2c3c(ccc4cc(O)ccc34)Oc3ccc4cc(O)ccc4c32)c1
410
12) Oc1ccc2c3c(ccc2c1)Oc1ccc2cc(O)ccc2c1C3c1cccc2ccccc12
415
13) Oc1ccc2c3c(ccc2c1)Oc1ccc2cc(O)ccc2c1C3c1ccc(-c2ccccc2)cc1
410
14) Oc1ccc2c3c(ccc2c1)Oc1ccc2cc(O)ccc2c1C31CCCCC1
400
